The reported measurements were obtained from patent US20260083865A1.

System: PC3-PIP tumor model
Parameters: species or system mice
Details: mouse, in vivo
Excerpt: Radioactively labeled compounds can be detected by imaging methods such as SPECT and PET. Furthermore, the data acquired by such techniques can be confirmed by direct measurement of radioactivity contained in the individual organs prepared from an animal injected with a radioactively labeled compound of the disclosure. Thus, the biodistribution (the measurement of radioactivity in individual organs) of a radioactively labeled compound can be determined and analyzed. […]
Numbered stars: 1 amine (or outer) side, 2 acyl side, 3 side chain; on linkers, the order of the positions; unused ones are H or OH. Bridge positions count the residues as written; N and C are the ends. Square brackets hold non-standard residues; d marks the D form. Peptide text beside a SMILES is read from it. * marks the point of attachment. DOTA = O=C(O)CN1CCN(CC(=O)O)CCN(CC(=O)*)CCN(CC(=O)O)CC1; Phe(4-Cl) = N[C@@H](Cc1ccc(Cl)cc1)C(=O)O; X1 = O=C(CC1CCN([*:1])CC1)[*:2]; Tle = CC(C)(C)[C@H](N)C(=O)O; Aib = CC(C)(N)C(=O)O
The reader will find reported AUC ratio [T/K] values listed item by item below.
Experimental Endpoint: AUC ratio [T/K]

C[C@@H](O)[C@H](NC(=O)[C@@H](NC(=O)[C@@H]1CSSC[C@H](NC(=O)[C@H](Cc2ccc(Cl)cc2)NC(=O)C(C)(C)NC(=O)[C@@H](NC(=O)CC2CCN(C(=O)CN3CCN(CC(=O)O)CCN(CC(=O)O)CCN(CC(=O)O)CC3)CC2)[C@@H](C)O)C(=O)N[C@@H](CCCCN)C(=O)N[C@@H](CCCNC(=N)N)C(=O)N[C@@H](CCC(=O)O)C(=O)N[C@@H](CC(N)=O)C(=O)N1)C(C)(C)C)C(N)=O [PSM-0416] ({DOTA}-[X1]T[Aib][Phe(4-Cl)]CKRENC[Tle]T-NH2; disulfide 5-10); 1.6
CC(=O)N[C@H](C(=O)NC(C)(C)C(=O)N[C@@H](Cc1ccccc1)C(=O)N[C@H]1CSSC[C@@H](C(=O)N[C@H](C(=O)N[C@H](C(=O)N2CCC(CC(=O)N[C@H](CCCCNC(=O)CN3CCN(CC(=O)O)CCN(CC(=O)O)CCN(CC(=O)O)CC3)C(N)=O)CC2)[C@@H](C)O)C(C)(C)C)NC(=O)[C@H](CC(N)=O)NC(=O)C(C)(C)NC(=O)[C@H](CCCNC(=N)N)NC(=O)[C@H](CCCCN)NC1=O)[C@@H](C)O [PSM-0428] (Ac-T[Aib]FCKR[Aib]NC[Tle]T[X1][dK](DOTA)-NH2; disulfide 4-9); 1.2

====

Biological target: Fc-fusion protein of human PSMA (hPSMA-Fc) (Homo sapiens, UniProt Q04609)
Construct: purchased Acro Biosystems PSA-H5264
Sequence (Q04609 44-750 limits assumed): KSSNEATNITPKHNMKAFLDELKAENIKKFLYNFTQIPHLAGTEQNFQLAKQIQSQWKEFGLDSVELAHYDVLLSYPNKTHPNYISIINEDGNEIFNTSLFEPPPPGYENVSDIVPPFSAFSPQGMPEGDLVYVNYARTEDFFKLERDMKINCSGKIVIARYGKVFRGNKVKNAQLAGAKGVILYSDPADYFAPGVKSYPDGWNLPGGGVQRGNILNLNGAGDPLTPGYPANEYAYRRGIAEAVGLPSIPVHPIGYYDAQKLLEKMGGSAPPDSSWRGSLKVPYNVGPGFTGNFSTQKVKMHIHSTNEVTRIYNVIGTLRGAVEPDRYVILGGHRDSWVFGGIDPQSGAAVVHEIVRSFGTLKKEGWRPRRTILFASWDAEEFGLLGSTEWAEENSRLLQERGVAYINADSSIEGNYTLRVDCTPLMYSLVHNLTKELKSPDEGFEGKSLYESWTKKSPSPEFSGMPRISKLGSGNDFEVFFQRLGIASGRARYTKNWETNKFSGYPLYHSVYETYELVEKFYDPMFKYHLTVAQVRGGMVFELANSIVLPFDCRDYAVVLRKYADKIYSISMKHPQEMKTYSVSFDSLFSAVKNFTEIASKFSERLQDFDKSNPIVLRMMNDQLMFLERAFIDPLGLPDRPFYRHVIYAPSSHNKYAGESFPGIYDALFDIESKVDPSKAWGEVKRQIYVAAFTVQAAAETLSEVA
Experiment: Surface plasmon resonance assay (Biacore T200, single cycle kinetic)
Assay type: binding
Conditions: SPR, hPSMA-Fc, single cycle kinetic, 25° C.; category; read-out: pKD CAT (converted)
Numbered stars: 1 amine (or outer) side, 2 acyl side, 3 side chain; on linkers, the order of the positions; unused ones are H or OH. Bridge positions count the residues as written; N and C are the ends. Square brackets hold non-standard residues; d marks the D form. Peptide text beside a SMILES is read from it. * marks the point of attachment. DOTA = O=C(O)CN1CCN(CC(=O)O)CCN(CC(=O)*)CCN(CC(=O)O)CC1; Phe(4-Cl) = N[C@@H](Cc1ccc(Cl)cc1)C(=O)O; d(αMeD) = C[C@@](N)(CC(=O)O)C(=O)O; NMeR = CN[C@@H](CCCNC(=N)N)C(=O)O; X1 = O=C(CC1CCN([*:1])CC1)[*:2]; Tle = CC(C)(C)[C@H](N)C(=O)O; Aib = CC(C)(N)C(=O)O
Kd by entry:
Experimental Endpoint: Kd

CC(=O)N[C@H](C(=O)NC(C)(C)C(=O)N[C@@H](Cc1ccccc1)C(=O)N[C@H]1CSSC[C@@H](C(=O)N[C@H](C(=O)N[C@H](C(N)=O)[C@@H](C)O)C(C)(C)C)NC(=O)[C@H](CC(N)=O)NC(=O)C(C)(C)NC(=O)[C@H](CCCNC(=N)N)N(C)C(=O)[C@H](CCCCN)NC1=O)[C@@H](C)O [PSM-0235] (Ac-T[Aib]FCK[NMeR][Aib]NC[Tle]T-NH2; disulfide 4-9); 0.126 to 0.501 µM
C[C@@H](O)[C@H](NC(=O)[C@@H](NC(=O)[C@@H]1CSSC[C@H](NC(=O)[C@H](Cc2ccc(Cl)cc2)NC(=O)C(C)(C)NC(=O)[C@@H](NC(=O)CC2CCN(C(=O)CN3CCN(CC(=O)O)CCN(CC(=O)O)CCN(CC(=O)O)CC3)CC2)[C@@H](C)O)C(=O)N[C@@H](CCCCN)C(=O)N[C@@H](CCCNC(=N)N)C(=O)N[C@](C)(CC(=O)O)C(=O)N[C@@H](CC(N)=O)C(=O)N1)C(C)(C)C)C(N)=O [PSM-0227] ({DOTA}-[X1]T[Aib][Phe(4-Cl)]CKR[d(αMeD)]NC[Tle]T-NH2; disulfide 5-10); < 0.0126 µM
CC(=O)NC(=N)NCCC[C@@H]1NC(=O)[C@H](CCCCN)NC(=O)[C@@H](NC(=O)[C@H](Cc2ccc(Cl)cc2)NC(=O)C(C)(C)NC(=O)CC2CCN(C(=O)CN3CCN(CC(=O)O)CCN(CC(=O)O)CCN(CC(=O)O)CC3)CC2)CSSC[C@@H](C(=O)N[C@H](C(=O)N[C@H](C(N)=O)[C@@H](C)O)C(C)(C)C)NC(=O)[C@H](CC(N)=O)NC(=O)C(C)(C)NC1=O [PSM-0223] ({DOTA}-[X1][Aib][Phe(4-Cl)]CKR(Ac)[Aib]NC[Tle]T-NH2; disulfide 4-9); 0.0126 to 0.126 µM
